The values you see were collected from PubChem BioAssay.

Test: A549 lung cancer cell viability effects, profiling panel, resazurin fluorescence, 24 h, PK04 Diversity Set (AID 1171); also: test concentration not given here
Settings: higher = more signal, called active from +8 up or from −8 down
Category key, based on recorded z-score: low: < 0.2; moderate: ≥ 0.2 and < 0.4; high: ≥ 0.4

Challenge: Note: place this compound into its band. Item: N#Cc1ccc(NN2C(C(O)C3CCCCC3)C=CC3C(=O)N(c4ccccc4)C(=O)C32)cc1 (centres undefined)
Response given: low

Challenge: Textbook exercise: identify the category of the compound given here, `N[C@@H](Cc1ccccc1)Cn1cc(-c2ccccc2)nn1` , according to its measured value.
Response given: high

Challenge: Entry `O=C1O[C@@H](c2ccccc2)[C@@H](c2ccccc2)N2[C@@H](c3ccc(O)cc3)[C@]3(C(=O)Nc4ccc(C#CC5=CCCCC5)cc43)[C@@H](C(=O)O)[C@H]12` belongs to which category?
Response given: high

Challenge: Kindly identify the class of `O=C(CS)NCCCCCCNC(=O)[C@@H]1C[C@@H]2C(=O)N3CCC[C@H]3C(=O)N2[C@@H]1c1ccc(O)cc1` .
Response given: low

Challenge: Please let me know in which category the item `COCCOC(=O)N1C(=O)[C@@]2(c3cc(C#CC4(O)CCCCCC4)ccc31)[C@H](C(=O)N1CCCCCCC1)[C@H]1C(=O)O[C@H](c3ccccc3)[C@H](c3ccccc3)N1[C@@H]2c1ccccc1OCCO` belongs.
Response given: low

Challenge: State the class of the compound shown: N#Cc1ccc(NN2C(C(O)c3cccs3)C=CC3C(=O)N(c4ccccc4)C(=O)C32)cc1 (centres undefined)
Response given: moderate

Challenge: In plain terms, what class is C=CCC(OC(C)=O)[C@@H]1[C@@H](N(Cc2ccc(-c3ccccc3)cc2)C(=O)Cc2ccc(F)cc2)c2cc(OCCCO)ccc2N1C(=O)c1ccc2ccccc2n1 (some centres undefined) ?
Response given: high

Challenge: Just checking, what class would you give COC(=O)c1ccc(C(O)C2C=CC3C(=O)N(C)C(=O)C3N2NC(=O)OC(C)(C)C)o1 (centres undefined) here?
Response given: moderate

Challenge: Kindly state the category for this compound: `COCCCNC(=O)[C@@]1(CCC(=O)OC(C)(C)C)N=C(c2ccc(OCCCO)cc2)O[C@H]1c1ccccc1CN=[N+]=[N-]`
Response given: low

Challenge: Band of CC1CC/C=C\[C@H]2OC34C=CCN(Cc5ccccc5)C(=O)[C@H]3N(CCCCCO)C(=O)[C@@H]4C2C(=O)O1 (some centres undefined) ?
Response given: moderate

Challenge: Kindly identify the class of N#Cc1ccc(NN2C(C(O)c3ccc([N+](=O)[O-])cc3)C=CC3C(=O)N(c4ccccc4)C(=O)C32)cc1 (centres undefined) .
Response given: low

Challenge: Class label required: `CC(C)N1C(=O)[C@@]2(c3ccc([N+](=O)[O-])cc3)CC(=O)N(CC34CC5CC(CC(C5)C3)C4)[C@@H]2c2ccc(CO)cc21`
Response given: low

Challenge: Which class does `O=C1O[C@@H](c2ccccc2)[C@@H](c2ccccc2)N2[C@@H](c3ccc(OCCO)cc3)[C@]3(C(=O)Nc4ccc(C#CC5=CCCCC5)cc43)[C@@H](C(=O)O)[C@H]12` fall in?
Response given: high

Challenge: Class (by measured z-score) for C[C@H]1NC(=O)[C@H](Cc2ccccc2)NC(=O)[C@@]23C(=O)N[C@@H](Cc4ccccc4)C2[C@H](C)[C@@]2(C)O[C@H]2C3/C=C/C/C=C\CNC1=O (some centres undefined)
Response given: moderate
